Source of measurements: the supplement of paper PMC11061612

Give Bliss excess for every item shown.
# Test system: DND-41 (T-Lymphoblastic Leukemia);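 also: after 72 h of two-drug dosing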
# EXPERIMENTAL_DETAILS: Bliss excess, mean over the matrix (fraction); higher = more synergy
One number for each entry.

Below, 2 compounds whose answers are already recorded.
C[C@@H](Oc1cc(-c2cnn(C3CCNCC3)c2)cnc1N)c1c(Cl)ccc(F)c1Cl [Crizotinib] + Cn1cnc2c(F)c(Nc3ccc(Br)cc3Cl)c(C(=O)NOCCO)cc21 [Selumetinib] (first compound max 10 µM, 7x7, partner max 10 µM)
0.0194
CN(CCO)CC[C@H](CSc1ccccc1)Nc1ccc(S(=O)(=O)NC(=O)c2ccc(N3CCC([C@@H](O)c4ccccc4-c4ccc(Cl)cc4)CC3)cc2)cc1S(=O)(=O)C(F)(F)F [AZD4320] + Nc1ccn([C@@H]2O[C@H](CO)[C@@H](O)C2(F)F)c(=O)n1 [Gemcitabine] (first compound max 1 µM, 7x7, partner max 0.3 µM)
0.0375

Shift focus to the following entry.
Which Bliss excess value belongs to CC(=O)c1c(C)c2cnc(Nc3ccc(N4CCNCC4)cn3)nc2n(C2CCCC2)c1=O [Palbociclib] + Cn1cnc2c(F)c(Nc3ccc(Br)cc3Cl)c(C(=O)NOCCO)cc21 [Selumetinib] (first compound max 10 µM, 7x7, partner max 10 µM) ?
0.0601
